Target: α4 β1 integrin (VLA-4) (Homo sapiens, UniProt P05556+P13612)
Construct: Jurkat cells (ATCC #TIB-153) which express high levels of α4 β1 integrin (VLA-4); host or cells: Jurkat cells
Sequence (P13612 34-1032): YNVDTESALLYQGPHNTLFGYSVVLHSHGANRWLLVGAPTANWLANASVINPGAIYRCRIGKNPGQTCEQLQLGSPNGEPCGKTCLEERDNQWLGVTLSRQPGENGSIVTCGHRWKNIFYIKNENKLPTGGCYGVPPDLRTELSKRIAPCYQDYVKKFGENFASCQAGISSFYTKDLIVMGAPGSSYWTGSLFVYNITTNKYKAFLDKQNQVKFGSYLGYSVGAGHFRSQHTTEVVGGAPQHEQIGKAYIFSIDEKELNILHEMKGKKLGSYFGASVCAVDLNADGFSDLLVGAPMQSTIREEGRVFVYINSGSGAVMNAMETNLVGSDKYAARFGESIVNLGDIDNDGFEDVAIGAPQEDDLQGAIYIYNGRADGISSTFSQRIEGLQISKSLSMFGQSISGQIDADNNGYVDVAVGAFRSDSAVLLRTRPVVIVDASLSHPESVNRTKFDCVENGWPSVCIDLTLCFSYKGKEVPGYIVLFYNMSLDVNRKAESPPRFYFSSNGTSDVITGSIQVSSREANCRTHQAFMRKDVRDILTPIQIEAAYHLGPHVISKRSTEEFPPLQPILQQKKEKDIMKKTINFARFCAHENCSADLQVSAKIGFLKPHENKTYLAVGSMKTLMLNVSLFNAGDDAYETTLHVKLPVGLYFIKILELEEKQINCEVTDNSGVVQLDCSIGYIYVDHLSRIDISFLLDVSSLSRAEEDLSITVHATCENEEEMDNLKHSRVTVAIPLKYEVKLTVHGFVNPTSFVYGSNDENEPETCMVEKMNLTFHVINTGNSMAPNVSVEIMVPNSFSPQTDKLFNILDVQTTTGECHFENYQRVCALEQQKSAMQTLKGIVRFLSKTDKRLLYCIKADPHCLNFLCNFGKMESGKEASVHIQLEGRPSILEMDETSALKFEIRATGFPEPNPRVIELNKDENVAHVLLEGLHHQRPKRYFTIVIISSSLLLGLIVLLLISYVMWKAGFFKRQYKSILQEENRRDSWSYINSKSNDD
Sequence (P05556 21-798): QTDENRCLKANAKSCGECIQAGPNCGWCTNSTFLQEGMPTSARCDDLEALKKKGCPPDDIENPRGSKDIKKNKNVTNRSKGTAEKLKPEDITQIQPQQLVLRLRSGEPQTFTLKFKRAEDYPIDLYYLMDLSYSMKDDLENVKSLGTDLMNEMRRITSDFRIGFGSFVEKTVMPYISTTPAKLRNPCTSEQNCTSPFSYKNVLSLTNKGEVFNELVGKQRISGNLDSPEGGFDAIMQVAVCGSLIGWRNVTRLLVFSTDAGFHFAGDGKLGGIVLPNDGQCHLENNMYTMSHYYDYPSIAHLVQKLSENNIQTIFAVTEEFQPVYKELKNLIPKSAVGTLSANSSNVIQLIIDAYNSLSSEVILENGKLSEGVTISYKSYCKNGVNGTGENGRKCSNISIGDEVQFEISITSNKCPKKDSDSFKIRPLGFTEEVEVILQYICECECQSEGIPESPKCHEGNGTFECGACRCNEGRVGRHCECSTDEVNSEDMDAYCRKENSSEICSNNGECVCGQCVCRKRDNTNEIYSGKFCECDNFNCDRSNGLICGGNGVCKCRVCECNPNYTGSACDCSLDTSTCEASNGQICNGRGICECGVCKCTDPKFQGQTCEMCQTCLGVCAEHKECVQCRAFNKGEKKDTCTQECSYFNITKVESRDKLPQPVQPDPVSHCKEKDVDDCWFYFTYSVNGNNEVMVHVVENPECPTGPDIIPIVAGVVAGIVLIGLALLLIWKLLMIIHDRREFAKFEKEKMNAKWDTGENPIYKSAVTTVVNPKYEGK
Test: Monovalent FACS Assay for α4 β1 Integrin/VCAM-1 Binding (inhibition of soluble VCAM-1 binding to Jurkat cells)
Conditions: Jurkat cells, rsVCAM-1; IC50 reflects 50% receptor occupancy; unit μM; read-out: IC50 (FACS)
Experimental endpoint: IC50
In your response, the unit should come after the numeric value.

Record request: IC50 value, item O=C(O)[C@H](Cc1ccccc1)Nc1c(NC(c2ccccc2)c2ccccc2)c(=O)c1=O
101 µM

Record request: IC50 value, item O=C(O)[C@H](Cc1ccccc1)Nc1c(NCc2ccccc2)c(=O)c1=O
58 µM

Record request: IC50 value, item CCCCCCN(Cc1ccc2ccccc2c1)c1c(N[C@@H](Cc2ccccc2)C(=O)O)c(=O)c1=O
36 µM

Record request: IC50 value, item O=C(O)[C@H](Cc1ccccc1)Nc1c(NCc2cccnc2)c(=O)c1=O
116 µM

Record request: IC50 value, item O=C(O)[C@H](Cc1ccccc1)Nc1c(N2CCN(c3ccccc3)CC2)c(=O)c1=O
86 µM

Record request: IC50 value, item CCCCCCN(CCCCCC)c1c(N[C@@H](Cc2ccccc2)C(=O)O)c(=O)c1=O
1.5 µM

Record request: IC50 value, item CCCCCCN(Cc1ccc(N(C)C)cc1)c1c(N[C@@H](Cc2ccccc2)C(=O)O)c(=O)c1=O
13 µM

Record request: IC50 value, item O=C(O)[C@H](Cc1ccccc1)Nc1c(NCCc2c[nH]c3ccccc23)c(=O)c1=O
52 µM

---

Target: α4 β1 integrin (VLA-4) (Homo sapiens, UniProt P05556+P13612)
Construct: Jurkat cells (ATCC #TIB-153) which express high levels of α4 β1 integrin (VLA-4); host or cells: Jurkat cells
Experiment: Monovalent FACS Assay for α4 β1 Integrin/VCAM-1 Binding (inhibition of soluble VCAM-1 binding to Jurkat cells)
Experimental endpoint: IC50 (nM)
The figure you give is taken to be in nM; do not add the unit.

| Given smiles | IC50 / nM |
| --- | --- |
| CN1CCN(C(=O)Oc2ccc(C[C@H](Nc3c(N(C)CCc4ccccc4)c(=O)c3=O)C(=O)O)cc2)CC1 | 0.5 |

Lab note: need IC50 with α4 β1 integrin (VLA-4) (Homo sapiens, UniProt P05556+P13612) for entry CN1CCN(C(=O)Oc2ccc(C[C@H](Nc3c(N(C)CCc4ccncc4)c(=O)c3=O)C(=O)O)cc2)CC1 , please look it up.
1.3

---

Reported IC50 values for the following molecules.
Biological target: α4 β1 integrin (VLA-4) (Homo sapiens, UniProt P05556+P13612)
Construct: Jurkat cells (ATCC #TIB-153) which express high levels of α4 β1 integrin (VLA-4); host or cells: Jurkat cells
Experiment: Monovalent FACS Assay for α4 β1 Integrin/VCAM-1 Binding (inhibition of soluble VCAM-1 binding to Jurkat cells)
Conditions: Jurkat cells, rsVCAM-1; IC50 reflects 50% receptor occupancy; unit μM; read-out: IC50 (FACS)
In your response, the unit should come after the numeric value.

Example results:
| Given smiles | Measured on | IC50 |
| --- | --- | --- |
| CC(=O)N1CCN(c2c(N[C@@H](Cc3ccccc3)C(=O)O)c(=O)c2=O)CC1 | α4 β1 integrin (VLA-4) (Homo sapiens, UniProt P05556+P13612) | 40 µM |
| O=C(O)[C@H](Cc1ccccc1)Nc1c(N(Cc2ccccc2)Cc2ccccc2)c(=O)c1=O | α4 β1 integrin (VLA-4) (Homo sapiens, UniProt P05556+P13612) | 4.4 µM |
| CCCCCCN(Cc1ccccc1)c1c(N[C@@H](Cc2ccccc2)C(=O)O)c(=O)c1=O | α4 β1 integrin (VLA-4) (Homo sapiens, UniProt P05556+P13612) | 4.4 µM |

Below: the item to evaluate.
Record request: IC50 value, item CN(CCc1ccncc1)c1c(N[C@@H](Cc2ccccc2)C(=O)O)c(=O)c1=O
9 µM

---

Target: α4 β1 integrin (VLA-4) (Homo sapiens, UniProt P05556+P13612)
Construct: Jurkat cells (ATCC #TIB-153) which express high levels of α4 β1 integrin (VLA-4); host or cells: Jurkat cells
Experiment: Monovalent FACS Assay for α4 β1 Integrin/VCAM-1 Binding (inhibition of soluble VCAM-1 binding to Jurkat cells)
Conditions: Jurkat cells, rsVCAM-1; IC50 reflects 50% receptor occupancy; unit nM; read-out: IC50 (FACS)
Protocol: The foregoing compounds were tested for VLA-4 binding activity using the following monvalent FACS assay. The IC50 for a compound reflects 50% receptor occupancy. Monovalent FACS Assay for α4 β1 Integrin/VCAM-1 Binding […]
Reported log10(IC50) values for the following compounds.
Units before log transform: nM; reported quantity: IC50; transform: log10.

Example results:
| Compound | log10(IC50) |
| --- | --- |
| CN(Cc1cccnc1)c1c(N[C@@H](Cc2ccc(NC(=O)c3cccnc3)cc2)C(=O)O)c(=O)c1=O [Example 48] | 2.20 |
| CCCCCCN(CCCCCC)c1c(N[C@@H](Cc2ccc(OC(=O)N3CCN(C)CC3)cc2)C(=O)O)c(=O)c1=O [Example 70] | -0.70 |
| CN(C)C(=O)Oc1ccc(C[C@H](Nc2c(N(C)CCc3ccncc3)c(=O)c2=O)C(=O)O)cc1 [Example 63] | 0.20 |
| CCCCCCN(CCCCCC)c1c(N[C@@H](Cc2ccc(NC(=O)c3ccccc3)cc2)C(=O)O)c(=O)c1=O [Example 26] | 2.18 |
| CCCCCCN(CCCCCC)c1c(N[C@@H](Cc2cn(Cc3ccccc3)cn2)C(=O)O)c(=O)c1=O [Example 29] | 2.80 |
| CN(CCc1ccccc1)c1c(N[C@@H](Cc2ccc(NC(=O)c3ccncc3)cc2)C(=O)O)c(=O)c1=O [Example 37] | 0.34 |

Below: the item to evaluate.
Record request: log10(IC50) value, item CCCCCCN(CCCCCC)c1c(N[C@@H](Cc2ccc(NC(=O)C3CCN(C(=O)OCc4ccccc4)CC3)cc2)C(=O)O)c(=O)c1=O [Example 53]
1.85

---

Biological target: α4 β1 integrin (VLA-4) (Homo sapiens, UniProt P05556+P13612)
Construct: Jurkat cells (ATCC #TIB-153) which express high levels of α4 β1 integrin (VLA-4); host or cells: Jurkat cells
Experiment: Monovalent FACS Assay for α4 β1 Integrin/VCAM-1 Binding (inhibition of soluble VCAM-1 binding to Jurkat cells)
Details: Jurkat cells, rsVCAM-1; IC50 reflects 50% receptor occupancy; unit nM; read-out: IC50 (FACS)
Experimental: The foregoing compounds were tested for VLA-4 binding activity using the following monvalent FACS assay. The IC50 for a compound reflects 50% receptor occupancy. Monovalent FACS Assay for α4 β1 Integrin/VCAM-1 Binding […]
Reported IC50 values for the following molecules.
The figure you give is taken to be in nM; do not add the unit.

| Given smiles | Experimental endpoint | Experimental value |
| --- | --- | --- |
| CN(CCc1ccncc1)c1c(N[C@@H](Cc2ccc(NC(=O)c3ccncc3)cc2)C(=O)O)c(=O)c1=O | IC50 | 15 |
| CN(C)C(=O)Oc1ccc(C[C@H](Nc2c(N(C)Cc3cccnc3)c(=O)c2=O)C(=O)O)cc1 | IC50 | 8.3 |

Record request: IC50 value, item CN(C)C(=O)Oc1ccc(C[C@H](Nc2c(N(C)CCc3ccccc3)c(=O)c2=O)C(=O)O)cc1
0.9

Record request: IC50 value, item CCCCCCN(CCCCCC)c1c(N[C@@H](Cc2ccc(OCCCN(C)C)cc2)C(=O)O)c(=O)c1=O
12

Record request: IC50 value, item CCCCCCN(CCCCCC)c1c(N[C@@H](Cc2ccc(OC(=O)N(C)C)cc2)C(=O)O)c(=O)c1=O
0.6

Record request: IC50 value, item CCCCCCN(CCCCCC)c1c(N[C@@H](Cc2ccc(NC(=O)c3ccncc3)cc2)C(=O)O)c(=O)c1=O
1.3

Record request: IC50 value, item CN(Cc1cccnc1)c1c(N[C@@H](Cc2ccc(NC(=O)c3ccncc3)cc2)C(=O)O)c(=O)c1=O
26

Record request: IC50 value, item CCCCCCN(CCCCCC)c1c(N[C@@H](Cc2ccc(NC(=O)c3cccnc3)cc2)C(=O)O)c(=O)c1=O
6.5

Record request: IC50 value, item CN(CCc1ccncc1)c1c(N[C@@H](Cc2ccc(NC(=O)c3cccnc3)cc2)C(=O)O)c(=O)c1=O
40
